Target: UniProt P21554
Sequence (P21554 1-415): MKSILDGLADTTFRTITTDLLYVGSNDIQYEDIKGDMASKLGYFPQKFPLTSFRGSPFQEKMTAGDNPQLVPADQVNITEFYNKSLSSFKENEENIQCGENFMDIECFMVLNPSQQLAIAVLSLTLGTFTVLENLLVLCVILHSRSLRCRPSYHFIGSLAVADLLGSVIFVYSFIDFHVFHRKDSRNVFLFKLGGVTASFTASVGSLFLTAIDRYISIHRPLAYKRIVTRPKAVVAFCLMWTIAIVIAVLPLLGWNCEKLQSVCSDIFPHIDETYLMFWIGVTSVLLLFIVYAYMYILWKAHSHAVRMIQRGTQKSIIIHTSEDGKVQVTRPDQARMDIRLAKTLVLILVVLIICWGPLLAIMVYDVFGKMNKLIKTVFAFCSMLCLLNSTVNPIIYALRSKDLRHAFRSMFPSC
Sequence (P25103 309-407 partner): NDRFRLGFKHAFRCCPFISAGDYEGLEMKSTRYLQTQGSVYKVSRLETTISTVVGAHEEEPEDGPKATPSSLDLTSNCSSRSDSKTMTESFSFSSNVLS
Experiment: β-arrestin2 translocation assay, U2OS cells expressing CB1-E and β-arrestin2-GFP
Settings: normalized to the response of WIN55212-2 set to 1; N = 3
// values below are reported β-arrestin2 translocation efficacy, 95% confidence interval
measuredParameter: β-arrestin2 translocation efficacy, 95% confidence interval

INSERT INTO measurements (testsmiles, resultvalue) VALUES
  ('CC1(C)Oc2cc(C34CC5CC(CC(C5)C3)C4)cc(O)c2[C@@H]2CC(CO)=CC[C@H]21', '0.54–0.80'),
  ('CC1=CC[C@@H]2[C@@H](C1)c1c(O)cc(C34CC5CC(CC(C5)C3)C4)cc1OC2(C)C', '0.43–0.81'),
  ('CC1(C)Oc2cc(C34CC5CC(CC(C5)C3)C4)cc(O)c2-c2cc(CO)ccc21', '0.68–0.94'),
  ('CC1(C)Oc2cc(C34CC5CC(CC(C5)C3)C4)cc(O)c2[C@@H]2C[C@H](CO)CC[C@H]21', '0.65–0.92');

Cited source: paper PMC3706088
